- Tested on: MCF7 breast
- test: NCI-60 one-dose screen, 48 h
- setup.conditions: 10 µM unless noted
This is part of a sample that, as a whole, favours compounds with a hit. Of some 83,000 tested, about 20% had one in any assay. Activity calls are given as the source filed them. Rule for the calls: active = growth percent below 10; inactive = the rest.
Entry note: the call must match one of active, inactive

q: Record lookup: outcome of this test for `CC(=O)Nc1ccc(-n2cnc3ccc(-c4ccc(O)cc4)cc32)cc1` ?
a: inactive

q: Record lookup: outcome of this test for `Cn1cc(-c2cc(N)n3nc(-c4cn(C)c5ccc(Cl)cc45)cc3n2)c2ccccc21` ?
a: inactive

q: Record lookup: outcome of this test for CCCS(=O)(=O)N1CCCC(C(=O)Nc2nc3ccc(NC(=O)c4ccc(F)c(OC)c4F)cc3s2)C1 (centres undefined) ?
a: inactive

q: Record lookup: outcome of this test for C=C1CCC2C3(C)COC(c4cccc(F)c4)OC3CCC2(C)C1C/C=C1/C(=O)OCC1O (centres undefined) ?
a: active

q: Record lookup: outcome of this test for `Cc1ccc(-c2nnc3ccc(N/N=C/c4ccccc4)nn23)cc1` ?
a: inactive

q: Record lookup: outcome of this test for `COc1ccc(C(=O)/C=C/c2cccc3ccccc23)cc1S(N)(=O)=O` ?
a: active

q: Record lookup: outcome of this test for CC1=C(C(=O)c2ccccc2)C(c2ccc(-n3cncn3)cc2)n2c(nc3ccccc32)N1 (centres undefined) ?
a: inactive

q: Record lookup: outcome of this test for `CSc1ccc(C(=O)Nc2ccc3nnn(/C(C#N)=C/c4ccccn4)c3c2)cc1` ?
a: active

q: Record lookup: outcome of this test for `N/C(=N\N=C\c1ccc([N+](=O)[O-])cc1)c1c(N)nc(=S)[nH]c1-c1ccc(Cl)cc1Cl` ?
a: inactive

q: Record lookup: outcome of this test for `Cc1ccc(S(=O)(=O)c2nc(S(=O)(=O)c3ccc(C)cc3)c(Cl)s2)cc1` ?
a: active

q: Record lookup: outcome of this test for `N#Cc1ccc(C(=O)Nn2c(N)cc3ccccc3c2=O)cc1` ?
a: inactive

q: Record lookup: outcome of this test for `CC(=O)c1c(N)c(C#N)cn1-c1ccc(Cl)cc1Cl` ?
a: inactive

q: Record lookup: outcome of this test for `CN(C)c1ccnc(CNCCSC2(c3ccccc3)c3ccccc3C=Cc3ccccc32)c1` ?
a: active

q: Record lookup: outcome of this test for `N/C(=N\c1nc2ccccc2s1)NC(=O)Nc1ccc(Cl)cc1Cl` ?
a: active

q: Record lookup: outcome of this test for `CN(C)c1ccnc(CNCCSC2(c3ccc(C(F)(F)F)cc3)c3ccccc3C=Cc3ccccc32)c1` ?
a: active

q: Record lookup: outcome of this test for `CCN(CC)c1ccnc(CNCCSC(c2ccccc2)(c2ccccc2)c2ccc(OC)cc2)c1` ?
a: active

q: Record lookup: outcome of this test for `COc1ccc(NC(=O)Cn2c3c(sc2=O)[C@H]2[C@@H](O)[C@@H](O)[C@H](O)[C@@H]2CS3)cc1` ?
a: inactive

q: Record lookup: outcome of this test for `O=C(N=Nc1c(O)[nH]c2ccc(Cl)cc12)c1ccc2nc(-c3ccccc3)[nH]c2c1` ?
a: active

q: Record lookup: outcome of this test for `O=C1NC(=O)c2c1c1c3cc(Br)ccc3[nH]c1c1oc3ccc(F)cc3c21` ?
a: active

q: Record lookup: outcome of this test for COCOc1ccc2c(=O)c(C)c(C(=O)N[C@@H](Cc3ccccc3)C(O)C(=O)NCCc3ccc(OC)cc3)oc2c1 (some centres undefined) ?
a: inactive

q: Record lookup: outcome of this test for CC1(c2cc3cc(Br)ccc3oc2=O)NC(=O)c2c(/C=C/C(=O)OC3CC4CCC3(C)C4(C)C)cccc2N1 (centres undefined) ?
a: inactive

q: Record lookup: outcome of this test for `O=C1Nc2cc(Cl)ccc2/C1=C/c1cccc(OCc2ccccn2)c1` ?
a: active

q: Record lookup: outcome of this test for `N#Cc1c(-c2cccc(Cl)c2Cl)cc(-c2ccc3ccccc3c2)[nH]c1=O` ?
a: inactive

q: Record lookup: outcome of this test for O=c1oc2ccccc2cc1-c1csc(N2N=C(c3ccccc3)CC2c2ccc(N3CCOCC3)cc2)n1 (centres undefined) ?
a: inactive

q: Record lookup: outcome of this test for COc1cc2c(c(OC)c1OC)C(=O)CC(c1cccc(NC(=O)c3cccc([N+](=O)[O-])c3)c1)O2 (centres undefined) ?
a: inactive

q: Record lookup: outcome of this test for `c1ccc(-c2csc(Nc3cccc(Nc4nc(-c5ccccc5)cs4)c3)n2)cc1` ?
a: inactive

q: Record lookup: outcome of this test for `O=C(c1ccccc1)C(c1c[nH]c2ccccc12)c1c[nH]c2ccccc12` ?
a: inactive

q: Record lookup: outcome of this test for `Cc1ccc(-c2nc(C#N)c(S(=O)(=O)N3CCN(S(=O)(=O)c4ccc(Cl)cc4)CC3)o2)cc1` ?
a: inactive

q: Record lookup: outcome of this test for `Cc1cc2nc3c4ccccc4n(CCNCCN(C)C)c3nc2cc1C` ?
a: active

q: Record lookup: outcome of this test for COC(OC)C1=C(C)OC(N)=C(C#N)C12C(=O)Nc1ccccc12 (centres undefined) ?
a: inactive

q: Record lookup: outcome of this test for `COc1ccc(-c2nc3cc(C)ccc3n2CC(=O)N=Nc2c(O)[nH]c3ccc(OC)cc23)cc1` ?
a: active

q: Record lookup: outcome of this test for `COc1ccc(C(=O)/C=C/c2cccc(Cl)c2)cc1S(N)(=O)=O` ?
a: active

q: Record lookup: outcome of this test for COC(=O)/C=C/c1cccc2c1C(=O)NC(C)(c1cc3ccccc3oc1=O)N2 (centres undefined) ?
a: inactive

q: Record lookup: outcome of this test for CC1[C@H]2[C@H](C[C@H]3[C@@H]4CC=C5c6sc(Nc7ccccc7F)nc6CC[C@]5(C)[C@H]4CC[C@@]32C)O[C@]12CC[C@@H](C)CO2 (some centres undefined) ?
a: active
